Task for the reader: assign each of the following compounds its reported Ratio IC50.
Organism: Homo sapiens
protocolNotes: Selectivity ratio of IC50 for human cathepsin-K to IC50 for human cathepsin-S

Reference set, count: 4
N#CCNC(=O)[C@@H]1C[C@@H](S(=O)(=O)CC2CC2)C[C@H]1C(=O)N1CCOCC1 = > 100
N#CCNC(=O)[C@@H]1CC(F)(F)C[C@H]1C(=O)N1CCOCC1 = 1
N#CCNC(=O)[C@@H]1CN(S(=O)(=O)c2ccccc2)C[C@H]1C(=O)N1CCOCC1 = > 90
N#CCNC(=O)[C@@H]1C[C@@H](S(=O)(=O)c2ccccc2Cl)C[C@H]1C(=O)N1CCOCC1 = > 20000

Turning now to a further record.
Consider the compound N#CCNC(=O)[C@@H]1C[C@@H](S(=O)(=O)c2ccccc2C(F)(F)F)C[C@H]1C(=O)N1CCOCC1 and give its measured Ratio IC50.
> 20000

Hey, just so you know, these numbers are from ChEMBL document CHEMBL3091448.
